So I've got a bunch of binders here, and I need their kon values.
# targetOfAssay: canine FcRn (FcRn large subunit with canine beta-2-microglobulin) (canine)
# testDetails: SPR pH 7.4, FcRn coupled at high density, IgG 400 nM
Your answer is read as M⁻¹ s⁻¹, so omit the unit and give the number.

Please report the recorded kon for anti-NGF canine IgGB antibody, Fc variant N434R + T286Y (antibody, part only; not given: anti-NGF variable domains and light chain, not shown: another chain or arm of the molecule) Fc: APEMLGGPSVFIFPPKPKDTLLIARTPEVTCVVVDLDPEDPEVQISWFVDGKQMQYAKTQPREEQFNGTYRVVSVLPIGHQDWLKGKQFTCKVNNKALPSPIERTISKARGQAHQPSVYVLPPSREELSKNTVSLTCLIKDFFPPDIDVEWQSNGQQEPESKYRTTPPQLDEDGSYFLYSKLSVDKSRWQRGDTFICAVMHEALHRHYTQESLSHSPGK .
3.4e+08

Look up kon: anti-NGF canine IgGB antibody, Fc variant N434R (antibody, part only; not given: Anti-NGF variable domains, not shown: another chain or arm of the molecule) Fc: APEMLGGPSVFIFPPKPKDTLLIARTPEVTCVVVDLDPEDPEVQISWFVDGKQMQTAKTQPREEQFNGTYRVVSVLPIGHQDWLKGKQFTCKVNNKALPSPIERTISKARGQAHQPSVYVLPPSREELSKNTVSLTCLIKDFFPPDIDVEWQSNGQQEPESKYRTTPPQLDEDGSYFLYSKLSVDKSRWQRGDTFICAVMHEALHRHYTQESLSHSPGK
8.25e+08

// lookup kon for anti-NGF canine IgGB antibody, Fc variant A426H + T286Y (antibody, part only; not given: anti-NGF variable domains and light chain, not shown: another chain or arm of the molecule; small tags and cut ends) Fc: APEMLGGPSVFIFPPKPKDTLLIARTPEVTCVVVDLDPEDPEVQISWFVDGKQMQYAKTQPREEQFNGTYRVVSVLPIGHQDWLKGKQFTCKVNNKALPSPIERTISKARGQAHQPSVYVLPPSREELSKNTVSLTCLIKDFFPPDIDVEWQSNGQQEPESKYRTTPPQLDEDGSYFLYSKLSVDKSRWQRGDTFICHVMHEALHNHYTQESLSHSPGK
136000
